system: Vero E6 infected with SARS-CoV-2; assay: inhibition of SARS-CoV-2 cytopathic effect; higher = more antiviral protection, active = above 15; settings: 833.33 nM; 48 h
Form field: inhibition of SARS-CoV-2 cytopathic effect (one value per entry).
measurement type: inhibition of SARS-CoV-2 cytopathic effect (%)

>>> reported_measurement("COC(=O)C1=C(C)NC(C)=C(C(=O)OCCSc2ccccc2)[C@@H]1C")
-0.76
>>> reported_measurement("CC(C)(C)NC(=O)[C@@H]1C[C@@H]2CCCC[C@@H]2CN1C[C@@H](O)[C@H](Cc1ccccc1)NC(=O)[C@H](CC(N)=O)NC(=O)c1ccc2ccccc2n1")
-6.25
>>> reported_measurement("Cc1cc(C)cc(C(=O)O[C@H]2C[C@H]3CC[C@@H](C2)N3C)c1 [tropanyl-3,5-dimethylbenzoate]")
-1.34
>>> reported_measurement("COc1ccc(S(=O)(=O)N2CCC[C@H]2C(=O)Nc2cc(C)cc(C)c2)cc1")
-4.87
>>> reported_measurement("CC1CC(OC(=O)C(O)c2ccccc2)CC(C)(C)C1 (centres undefined) [cyclandelate]")
-0.91
>>> reported_measurement("CC(=O)Oc1ccccc1C(=O)O")
-5.09
>>> reported_measurement("CC1(C)S[C@@H]2[C@H](NC(=O)[C@H](N)c3ccccc3)C(=O)N2[C@H]1C(=O)O")
-1.53
>>> reported_measurement("CC(=O)SC[C@@H](Cc1ccccc1)C(=O)NCC(=O)OCc1ccccc1 (racemic)")
1.15
>>> reported_measurement("CC(=O)Nc1nnc(S(N)(=O)=O)s1 [acetazolamide]")
-2.21

====

test system: Vero E6 infected with SARS-CoV-2; test: inhibition of SARS-CoV-2 cytopathic effect; higher = more antiviral protection, active = above 15; details: 1 nM; 48 h
Parameter: inhibition of SARS-CoV-2 cytopathic effect. Scope: all listed entries.
measurement type: inhibition of SARS-CoV-2 cytopathic effect (%)

>>> reported_measurement("C[N+]1([O-])[C@@H]2CC[C@H]1C[C@@H](OC(=O)C(CO)c1ccccc1)C2 (some centres undefined) [atropine-oxide]")
-2.53
>>> reported_measurement("COC1(C2=NCCN2)COc2ccccc2O1 (centres undefined)")
0.37
>>> reported_measurement("CCCC(=O)N1CCCN(c2nc(N)c3cc(OC)c(OC)cc3n2)CC1")
-0.32
>>> reported_measurement("CC(=O)SC[C@@H](Cc1ccccc1)C(=O)NCC(=O)OCc1ccccc1 (racemic)")
1.48
>>> reported_measurement("C[N+]1(C)CCc2cc3c(cc2[C@H]1[C@@H]1OC(=O)c2c1ccc1c2OCO1)OCO3 [bicuculline-methochloride-(-)]")
-4.58
>>> reported_measurement("Nc1ncnc2c1c(-c1ccc(Cl)cc1)nn2-c1cccc(-c2cnnn2Cc2cccc(-c3ccccc3)c2)c1")
-2.81
>>> reported_measurement("COc1cc2c(cc1O)C(CCc1ccc(Cl)cc1)N(C)CC2 (centres undefined)")
0.21
>>> reported_measurement("COc1ccc(C2CC(c3c(O)cc(C)oc3=O)=NCCS2)c(OC)c1 (centres undefined)")
0.21
>>> reported_measurement("c1ccc(C[C@H](c2ccccc2)N2CCCCC2)cc1 (racemic) [1-(1,2-diphenylethyl)piperidine-(+/-)]")
0.78

====

Listed here: items and their measured inhibition of SARS-CoV-2 cytopathic effect.
tested on: Vero E6 infected with SARS-CoV-2; assay: inhibition of SARS-CoV-2 cytopathic effect; higher = more antiviral protection, active = above 15; settings: 8.33 nM; 48 h
measurement type: inhibition of SARS-CoV-2 cytopathic effect (%)

>>> reported_measurement("O=C(CNC(=O)c1ccc(Cl)cc1)NO")
-2.49
>>> reported_measurement("CCc1nc(C)ccc1O")
3.95
>>> reported_measurement("C[N+]1(C)CCCC(OC(=O)C(O)(c2ccccc2)c2ccccc2)C1 (configuration not stated) [mepenzolate]")
-0.16
>>> reported_measurement("NC(=O)CN1Cc2ccccc2OC1=O")
-3.02
>>> reported_measurement("COC(=O)CCc1ccc(OCC(O)CNC(C)C)cc1 (configuration not stated)")
0.64
>>> reported_measurement("COc1ccc(CNC(=O)/C=C/c2ccc3[nH]cc(CCN(C)C)c3c2)cc1")
0.05
>>> reported_measurement("CC(=O)O[C@@]12CO[C@@H]1C[C@H](O)[C@@]1(C)C(=O)[C@H](O)C3=C(C)[C@@H](O)C[C@@](O)([C@@H](OC(=O)c4ccccc4)[C@H]21)C3(C)C")
0.94
>>> reported_measurement("CN(Cc1ccc(C(C)(C)C)cc1)Cc1cccc2ccccc12")
3.81
>>> reported_measurement("COc1ccc(NS(=O)(=O)c2sc3ccc(Cl)cc3c2C)cc1N1CCNCC1")
3.35
>>> reported_measurement("NCC1OC(C23CC4CC(CC(C4)C2)C3)Cc2c1ccc(O)c2O (configuration not stated)")
0.56
>>> reported_measurement("O=[N+]([O-])c1cccc2cn[nH]c12")
1.76
>>> reported_measurement("OC[C@H]1O[C@@H](O[C@@H]2[C@H](O)[C@@H](O)[C@H](O[C@H]3[C@H](O)[C@@H](O)C(O)O[C@@H]3CO)O[C@@H]2CO)[C@H](O)[C@@H](O)[C@H]1O (some centres not stated)")
-2.42
>>> reported_measurement("Cc1nc(Nc2n[nH]c3c2CN(C(=O)N[C@H](CN(C)C)c2ccccc2)C3(C)C)c2sccc2n1")
-1.34
>>> reported_measurement("NCCCC[C@H](NC(=O)[C@@H]1CCCN1C(=O)[C@@H]1CSSC[C@H](NC(=O)CNC(=O)CNC(=O)CN)C(=O)N[C@@H](Cc2ccc(O)cc2)C(=O)N[C@@H](Cc2ccccc2)C(=O)N[C@@H](CCC(N)=O)C(=O)N[C@@H](CC(N)=O)C(=O)N1)C(=O)NCC(N)=O")
0.07
>>> reported_measurement("CC(=O)Nc1ccc(CC(=O)O)cc1")
-0.52
>>> reported_measurement("CC[C@H](C)[C@@H]1NC(=O)[C@H](Cc2ccc(OC)cc2)NC(=O)CCCSC[C@@H](C(=O)N2CCC[C@H]2C(=O)N[C@@H](CC(C)C)C(=O)NCC(N)=O)NC(=O)[C@H](CC(N)=O)NC(=O)[C@H](CCC(N)=O)NC1=O")
0.45
>>> reported_measurement("CC1(C)C(=O)NC2=C1C(=O)C(=O)c1ccccc12")
-0.49

====

test system: Vero E6 infected with SARS-CoV-2; test: inhibition of SARS-CoV-2 cytopathic effect; higher = more antiviral protection, active = above 15; conditions: 1 nM; 48 h
Listed molecules paired with reported inhibition of SARS-CoV-2 cytopathic effect
measurement type: inhibition of SARS-CoV-2 cytopathic effect

>>> reported_measurement("COc1cccc(-c2ccc([C@@H](Oc3cc(-c4ccc(C[C@H](N)C(=O)O)cc4)nc(N)n3)C(F)(F)F)cc2)c1")
"-4.34% (inactive)"
>>> reported_measurement("NC1=N[C@@]2(c3cc(NC(=O)c4ccc(F)cn4)ccc3F)COC[C@H]2CS1")
"-3.54% (inactive)"
>>> reported_measurement("Nc1sc2c(c1C(=O)c1ccc(Cl)cc1)CCCC2")
"-0.5% (inactive)"
>>> reported_measurement("Cc1cccc(N(C)C(=S)Oc2ccc3ccccc3c2)c1 [tolnaftate]")
"-0.91% (inactive)"
>>> reported_measurement("CO[C@@H]1[C@H](N(C)C(=O)c2ccccc2)C[C@H]2O[C@]1(C)n1c3ccccc3c3c4c(c5c6ccccc6n2c5c31)C(=O)NC4")
"-10.1% (inactive)"
>>> reported_measurement("NC(=O)c1cnc2[nH]ccc2c1N[C@@H]1[C@@H]2CC3C[C@H]1C[C@@](O)(C3)C2")
"-1.55% (inactive)"
>>> reported_measurement("Cc1cc(NC(=O)C(c2ccccc2)N2CCCc3ccccc32)no1 (centres undefined)")
"0.33% (inactive)"
>>> reported_measurement("Sc1nc2ccccc2s1 [benzo[d]thiazole-2(3H)-thione]")
"-1.3% (inactive)"
>>> reported_measurement("COc1ccc(S(=O)(=O)N2CCC[C@H]2C(=O)Nc2cc(C)cc(C)c2)cc1")
"-4.61% (inactive)"

====

test system: Vero E6 infected with SARS-CoV-2; assay: morphology score (similarity to uninfected cells); higher = more like uninfected cells; settings: 24 h
measurement type: morphology score

>>> reported_measurement("COc1cc(N2CCN(C(C)=O)CC2)ccc1Nc1ncc(Cl)c(Nc2ccc(N3CCN(C(C)=O)CC3)cc2OC)n1 (10 µM)")
0.0828
>>> reported_measurement("O=C1CCC(N2C(=O)c3ccccc3C2=O)C(=O)N1 (stereo not drawn) [thalidomide] (10 µM)")
-0.223
>>> reported_measurement("CNC(=O)c1ccc(N2C(=S)N(c3cnc(C#N)c(C(F)(F)F)c3)C(=O)C23CCC3)cc1F [apalutamide] (10 µM)")
0.0169
>>> reported_measurement("CC(=O)OCC(=O)[C@H]1CC[C@H]2[C@@H]3CC[C@H]4C[C@H](O)CC[C@]4(C)[C@H]3C(=O)C[C@]12C [alfadolone-acetate] (10 µM)")
-0.231
>>> reported_measurement("Cc1ncc([N+](=O)[O-])n1CC(C)O (stereo not drawn) [secnidazole] (10 µM)")
0.17
>>> reported_measurement("C[C@@H]1CC(=O)NN=C1c1ccc(NN=C(C#N)C#N)cc1 [levosimendan] (10 µM)")
-0.109
>>> reported_measurement("CC(C)(C)[C@]1(O)CCN2C[C@H]3c4ccccc4CCc4cccc(c43)[C@@H]2C1 [butaclamol] (10 µM)")
0.273
>>> reported_measurement("CN1CCN(S(=O)(=O)c2ccc(-c3cnc(N)c(C(=O)Nc4cccnc4)n3)cc2)CC1 (0.833333 µM)")
0.224

Numbers sourced from the supplement of paper PMC13380429.
